Examples of compounds with documented log10 of ED50 follow.
System: jumping behavior induced by Methamphetamine and L-DOPA
Experiment: Activity for inhibiting jumping behavior in mouse induced by Methamphetamine and L-DOPA
Assay type: in vivo, mouse (male, ddy-strain)
Conditions: oral, Methamphetamine 4 mg/kg i.p. and L-DOPA 400 mg/kg i.p., positive = 10 or fewer jumps, read-out: ED50 value, inhibition of jumping behavior
Recall that a logarithmic scale is used here: each number is log10 of ED50 in mg/kg.

| compound | log10 of ED50 |
| --- | --- |
| CCOc1ccccc1N1CCN(CCCCc2ccc3c(c2)CCC(=O)N3)CC1 [Compound 15] | -0.41 |
| Cc1cccc(N2CCN(CC=Cc3ccc4c(c3)CCC(=O)N4)CC2)c1 [Compound 10] | 0.78 |
| CCOc1ccccc1N1CCN(CCC=Cc2ccc3c(c2)CCC(=O)N3)CC1 [Compound 12] | -1.25 |
| O=C1CCc2cc(C=CCN3CCN(c4cccc(Cl)c4)CC3)ccc2N1 [Compound 8] | 0.01 |

Now examine the next entry.
Req: Any idea what log10 of ED50 came out for COc1ccccc1N1CCN(CC=Cc2ccc3c(c2)CCC(=O)N3)CC1 [Compound 19] on jumping behavior induced by Methamphetamine and L-DOPA?
Resp: -0.10

* * *

System: epinephrine
Experiment: Activity for antagonizing epinephrine in mouse
Format: in vivo, mouse (male, ddy strain)
Details: oral, 1 hour before epinephrine 40 mg/kg i.p., survival at 24 hours, read-out: ED50 value, dose allowing half the animals to survive
Listing: ED50 of selected compounds
Field: numeric (mg/kg). Do not append units.

| test smiles | ED50 [mg/kg] |
| --- | --- |
| O=C1CCc2cc(C(=O)CCCN3CCN(c4ccccc4Cl)CC3)ccc2N1 | 6.12 |
| CCOc1ccccc1N1CCN(CCCCc2ccc3c(c2)CCC(=O)N3)CC1 | 0.71 |
| O=C1CCc2cc(C(=O)CCN3CCN(c4ccccc4)CC3)ccc2N1 | 3.03 |
| COc1ccccc1N1CCN(CC=Cc2ccc3c(c2)CCC(=O)N3)CC1 | 0.1 |
| CCOc1ccccc1N1CCN(CCC=Cc2ccc3c(c2)CCC(=O)N3)CC1 | 0.005 |

Please turn your attention to the following entry.
Req: # input compound: O=C1CCc2cc(CCCN3CCN(c4ccccc4)CC3)ccc2N1 ; wanted: its ED50
Resp: 0.21

* * *

ED50 values, listed per item
Test system: jumping behavior induced by Methamphetamine and L-DOPA
Assay: Activity for inhibiting jumping behavior in mouse induced by Methamphetamine and L-DOPA
Type: in vivo, mouse (male, ddy-strain)
Conditions: oral, Methamphetamine 4 mg/kg i.p. and L-DOPA 400 mg/kg i.p., positive = 10 or fewer jumps, read-out: ED50 value, inhibition of jumping behavior
Use mg/kg as the unit, but write only the number.

Example entries begin here.
| molecule | units text | ED50 |
| --- | --- | --- |
| CCOc1ccccc1N1CCN(CCC=Cc2ccc3[nH]c(=O)ccc3c2)CC1 [Compound 31] | mg/kg | 0.14 |
| COc1ccccc1C1CCN(CCCc2ccc3c(c2)CCC(=O)N3)CC1.O=C(O)C(=O)O [Compound 29] | mg/kg | 2.01 |
| O=C1CCc2cc(CCCCN3CCN(c4ccccc4Cl)CC3)ccc2N1 [Compound 14] | mg/kg | 3.23 |
| CCOc1ccccc1N1CCN(CC=Cc2ccc3c(c2)CCC(=O)N3)CC1 [Compound 9] | mg/kg | 0.12 |

Req: Request the reported ED50 associated with O=C1CCc2cc(C=CCCN3CCN(c4ccccc4)CC3)ccc2N1 [Compound 11]
Resp: 1.6

Req: Which ED50 value belongs to CCOc1ccccc1N1CCN(CCCc2ccc3c(c2)CCC(=O)N3)CC1 [Compound 16] ?
Resp: 0.24

Req: What value of measured ED50 is listed for O=C1CCc2cc(C(=O)CCCN3CCN(c4ccccc4Cl)CC3)ccc2N1 [Compound 3] ?
Resp: 1.05

* * *

Target: retraction of ileum caused by histamine (Cavia porcellus, UniProt P31389)
Sequence (P31389 whole entry): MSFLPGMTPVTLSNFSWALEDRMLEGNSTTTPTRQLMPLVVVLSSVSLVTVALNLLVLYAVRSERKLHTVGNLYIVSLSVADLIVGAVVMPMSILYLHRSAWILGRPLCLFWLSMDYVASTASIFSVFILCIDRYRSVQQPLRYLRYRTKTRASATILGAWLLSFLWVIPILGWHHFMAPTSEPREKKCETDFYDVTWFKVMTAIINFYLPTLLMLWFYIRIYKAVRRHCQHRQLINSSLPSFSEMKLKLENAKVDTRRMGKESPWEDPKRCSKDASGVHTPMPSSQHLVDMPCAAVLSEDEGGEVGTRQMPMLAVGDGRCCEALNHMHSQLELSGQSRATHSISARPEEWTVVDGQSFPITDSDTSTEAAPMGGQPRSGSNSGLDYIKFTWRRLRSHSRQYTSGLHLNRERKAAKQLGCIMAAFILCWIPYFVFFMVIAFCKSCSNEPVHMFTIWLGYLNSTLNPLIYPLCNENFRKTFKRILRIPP
Test: Antihistaminic activity test in vitro, enucleated ileum of guinea pig
Set-up: species or system guinea pig (male)
Settings: 10^-6 g/ml test compound, histamine, Tyrode's solution, 36° C., Van Rossam method; read-out: pA2 (converted)
Method: (E) Antihistaminic activity test As to the test method for determining antihistaminic activity of a compound in vitro, a method of using an enucleated ileum of a guinea pig is generally accepted. Antihistaminic activity of the present compounds was conduted according to said method as follows: A male guinea pig having 300 to 500 g body weight was killed by blood letting. […] Retraction of the isotonic was recorded on a pen-recorder through an isotonic transducer (TD-112S manufactured by Nihon Koden). […]
measured parameter: Kb (nM)
Please give a number only; it is taken to be in nM.

Req: Returns the measured Kb for the input compound. Input: O=C1CCc2c(CCCN3CCN(c4ccccc4)CC3)cccc2N1
Resp: 97.7

Req: Fill in: Kb of CN1C(=O)CCc2cc(C(=O)CCN3CCN(c4ccccc4)CC3)ccc21 is ___
Resp: 26.3

Req: Name the reported Kb value associated with the compound O=C1CCc2cc(C(=O)CCN3CCC(Cc4ccccc4)CC3)ccc2N1
Resp: 58.9

Req: // query Kb value for entry Cc1cccc(N2CCN(CC=Cc3ccc4c(c3)CCC(=O)N4Cc3ccccc3)CC2)c1 [Compound 21, monooxalate]
Resp: 49

* * *

System: male rats
Conditions: rat, in vivo, po
measured parameter: Acute toxicity (LD50) (mg/kg)
Report the value in mg/kg with no unit label.

| test smiles | Acute toxicity (LD50) [mg/kg] |
| --- | --- |
| O=C1CCc2cc(C(=O)CCN3CCN(c4ccccc4)CC3)ccc2N1 | 500 |

Req: What measured Acute toxicity (LD50) goes with O=C1CCc2cc(C=CCN3CCN(c4cccc(Cl)c4)CC3)ccc2N1 ?
Resp: 500

Req: Which Acute toxicity (LD50) reading was recorded for the compound O=C1CCc2cc(CCCN3CCN(c4ccccc4)CC3)ccc2N1 ?
Resp: 500

* * *

ED50 by entry:
Tested on: epinephrine
Assay: Activity for antagonizing epinephrine in mouse
Assay type: in vivo, mouse (male, ddy strain)
Settings: oral, 1 hour before epinephrine 40 mg/kg i.p., survival at 24 hours, read-out: ED50 value, dose allowing half the animals to survive
Please reply with the bare figure in mg/kg and do not write the unit itself.

| molecule | units text | ED50 |
| --- | --- | --- |
| O=C1CCc2cc(C(=O)CCCN3CCN(c4ccccc4)CC3)ccc2N1 [Compound 2] | mg/kg | 4.02 |
| CCOc1ccccc1N1CCN(CC=Cc2ccc3c(c2)CCC(=O)N3)CC1 [Compound 9] | mg/kg | 0.005 |
| COc1ccccc1N1CCN(CCCc2ccc3c(c2)CCC(=O)N3)CC1 [Compound 17] | mg/kg | 0.29 |

Req: Would you mind telling me what ED50 value was observed for CCOc1ccccc1N1CCN(CCCc2ccc3c(c2)CCC(=O)N3)CC1 [Compound 16] ?
Resp: 0.02

* * *

Test system: jumping behavior induced by Methamphetamine and L-DOPA
Experiment: Activity for inhibiting jumping behavior in mouse induced by Methamphetamine and L-DOPA
Format: in vivo, mouse (male, ddy-strain)
Conditions: oral, Methamphetamine 4 mg/kg i.p. and L-DOPA 400 mg/kg i.p., positive = 10 or fewer jumps, read-out: ED50 value, inhibition of jumping behavior
Lab note: cut-off is 2 mg/kg. Strictly less in ED50 is 1. Exactly 2 mg/kg or more is 0.

Solved cases (6 shown):
| compound | class label |
| --- | --- |
| O=C1CCc2cc(C(=O)CCCN3CCN(c4ccccc4)CC3)ccc2N1 | 1 |
| O=C1CCc2cc(CCCN3CCN(c4ccccc4)CC3)ccc2N1 | 1 |
| O=C1CCc2cc(C(=O)CCN3CCN(c4cccc(Cl)c4)CC3)ccc2N1 | 1 |
| O=C1CCc2cc(C(=O)CCN3CCN(c4ccccc4)CC3)ccc2N1 | 1 |
| O=C1CCc2cc(C=CCN3CCN(c4ccc(Cl)cc4)CC3)ccc2N1 | 0 |
| CCC(C(O)c1ccc2[nH]c(=O)ccc2c1)N1CCN(c2cccc(Cl)c2)CC1 (centres unmarked) | 0 |

Req: Is ED50 of O=c1ccc2cc(CCCCN3CCN(c4ccccc4)CC3)ccc2[nH]1 strictly below 2 mg/kg?
Resp: 1
